- Tested on: PBMC
- protocol: 193 ssRNA 4mer-motif library screen: IL-12 (IL-12p40) production in PBMC of six donors, poly-L-Arg complexation, ELISA at 44 hours, IL-12 index and adjusted IL-12 index
- Assay type: cell-based, human
- Set-up: key: IL-12 index (ratio to 9.2sense) minus donor mean, averaged over 6 donors
- condition_details: 193 ssRNA oligonucleotide library; data from six individual donors summarized; ascending order
measurement_kind: Adjusted IL-12 index Mean

>>> test_value("AAAAAAAUGCUAAAAAAAA (chemistry not given here) [ANP-Oligo 175]")
1.85
>>> test_value("AAAAAAACUGGAAAAAAAA (RNA, backbone not given here) [ANP-Oligo 093]")
"−0.31"
>>> test_value("AAAAAAAGUGGAAAAAAAA (RNA, backbone not given here) [ANP-Oligo 141]")
0.5
>>> test_value("AAAAAAAGUUUAAAAAAAA (RNA, backbone not given here) [ANP-Oligo 145]")
1.32

----------
Measured Adjusted IL-12 index Mean values are reported for all entries that follow.
- Tested on: PBMC
- protocol: 193 ssRNA 4mer-motif library screen: IL-12 (IL-12p40) production in PBMC of six donors, poly-L-Arg complexation, ELISA at 44 hours, IL-12 index and adjusted IL-12 index
- Type: cell-based, human
- Set-up: key: IL-12 index (ratio to 9.2sense) minus donor mean, averaged over 6 donors
- condition_details: 193 ssRNA oligonucleotide library; data from six individual donors summarized; ascending order
measurement_kind: Adjusted IL-12 index Mean

>>> test_value("AAAAAAAUCCGAAAAAAAA (RNA, backbone not given here) [ANP-Oligo 162]")
"−0.5"
>>> test_value("AAAAAAAUAAUAAAAAAAA (RNA, backbone not given here) [ANP-Oligo 148]")
0.7
>>> test_value("AAAAAAACCACAAAAAAAA (RNA, backbone not given here) [ANP-Oligo 062]")
"−0.66"
>>> test_value("AAAAAAAUGCGAAAAAAAA (RNA, backbone not given here) [ANP-Oligo 174]")
0.28
>>> test_value("AAAAAAAUCUUAAAAAAAA (RNA, backbone not given here) [ANP-Oligo 169]")
0.67
>>> test_value("AAAAAAAUUUUAAAAAAAA (RNA, backbone not given here) [ANP-Oligo 193]")
0.62
>>> test_value("AAAAAAAGGUGAAAAAAAA (RNA, backbone not given here) [ANP-Oligo 132]")
0.47

----------
Measured Adjusted IL-12 index Mean values are reported for all entries that follow.
- Tested on: PBMC
- protocol: 193 ssRNA 4mer-motif library screen: IL-12 (IL-12p40) production in PBMC of six donors, poly-L-Arg complexation, ELISA at 44 hours, IL-12 index and adjusted IL-12 index
- Assay type: cell-based, human
- Set-up: key: IL-12 index (ratio to 9.2sense) minus donor mean, averaged over 6 donors
- condition_details: 193 ssRNA oligonucleotide library; data from six individual donors summarized; ascending order
measurement_kind: Adjusted IL-12 index Mean

>>> test_value("AAAAAAACACCAAAAAAAA (RNA, backbone not given here) [ANP-Oligo 053]")
"−0.67"
>>> test_value("AAAAAAACUUGAAAAAAAA (RNA, backbone not given here) [ANP-Oligo 096]")
"−0.14"
>>> test_value("AAAAAAAAUCCAAAAAAAA (RNA, backbone not given here) [ANP-Oligo 041]")
"−0.48"
>>> test_value("AAAAAAAAUUGAAAAAAAA (RNA, backbone not given here) [ANP-Oligo 048]")
"−0.35"
>>> test_value("AAAAAAAUCCUAAAAAAAA (RNA, backbone not given here) [ANP-Oligo 163]")
"−0.15"
>>> test_value("AAAAAAAGUGCAAAAAAAA (RNA, backbone not given here) [ANP-Oligo 140]")
0.99
>>> test_value("AAAAAAAUACCAAAAAAAA (RNA, backbone not given here) [ANP-Oligo 149]")
0.27
>>> test_value("AAAAAAAGUUGAAAAAAAA (RNA, backbone not given here) [ANP-Oligo 144]")
4.39
>>> test_value("AAAAAAAUAAGAAAAAAAA (RNA, backbone not given here) [ANP-Oligo 147]")
0.27
>>> test_value("AAAAAAACGAGAAAAAAAA (RNA, backbone not given here) [ANP-Oligo 075]")
"−0.65"
>>> test_value("AAAAAAAGUUCAAAAAAAA (RNA, backbone not given here) [ANP-Oligo 143]")
0.56
>>> test_value("AAAAAAACUAGAAAAAAAA (RNA, backbone not given here) [ANP-Oligo 087]")
"−0.03"
>>> test_value("AAAAAAAAUAUAAAAAAAA (RNA, backbone not given here) [ANP-Oligo 040]")
"−0.04"
